Target protein (sequence): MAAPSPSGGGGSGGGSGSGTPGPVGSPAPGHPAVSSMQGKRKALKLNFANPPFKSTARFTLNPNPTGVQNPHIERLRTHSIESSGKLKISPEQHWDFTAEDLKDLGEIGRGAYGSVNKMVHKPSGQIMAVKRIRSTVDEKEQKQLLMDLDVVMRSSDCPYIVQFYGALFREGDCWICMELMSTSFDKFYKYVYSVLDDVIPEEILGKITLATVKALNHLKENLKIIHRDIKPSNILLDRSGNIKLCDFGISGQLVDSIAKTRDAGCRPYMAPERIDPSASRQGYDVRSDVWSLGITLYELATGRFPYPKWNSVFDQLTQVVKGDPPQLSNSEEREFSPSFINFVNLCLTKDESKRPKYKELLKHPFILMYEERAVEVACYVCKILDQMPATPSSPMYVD
# reported IC50; entries follow

compound_smiles | IC50
CCCS(=O)(=O)Nc1c(F)ccc(C(=O)c2n[nH]c3ncc(-c4cncnc4)cc23)c1F | 100 to 1000 nM
CCCS(=O)(=O)Nc1c(F)ccc(C(=O)c2n[nH]c3ncc(-c4cnc(C#N)nc4)cc23)c1F | 100 to 1000 nM
CCCS(=O)(=O)Nc1c(F)ccc(C(=O)c2n[nH]c3ncc(-c4ccncc4C)cc23)c1F | < 100 nM
CCS(=O)(=O)Nc1c(F)ccc(C(=O)c2n[nH]c3ncc(-c4ccc(Cl)cc4)cc23)c1F | 100 to 1000 nM

* * *

Target: JNK1 (Homo sapiens, UniProt P45983)
Construct: purchased ProQinase GmbH, Freiburg, Germany (assay service)
Sequence (P45983 whole entry): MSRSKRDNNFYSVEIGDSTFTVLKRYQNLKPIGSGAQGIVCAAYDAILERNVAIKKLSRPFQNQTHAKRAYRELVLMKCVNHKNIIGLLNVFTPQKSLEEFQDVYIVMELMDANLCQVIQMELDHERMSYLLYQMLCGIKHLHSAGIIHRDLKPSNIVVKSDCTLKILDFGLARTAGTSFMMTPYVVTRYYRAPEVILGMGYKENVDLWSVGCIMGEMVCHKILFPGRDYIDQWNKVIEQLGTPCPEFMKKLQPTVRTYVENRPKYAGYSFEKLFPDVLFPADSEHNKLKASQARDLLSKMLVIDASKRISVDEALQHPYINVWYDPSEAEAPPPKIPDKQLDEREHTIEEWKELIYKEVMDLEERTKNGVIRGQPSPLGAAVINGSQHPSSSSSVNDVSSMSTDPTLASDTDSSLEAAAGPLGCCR
Experiment: 33PanQinase radiometric kinase assay, JNK1 (off-target)
Assay type: biochemical
Conditions: ratio IC50(off-target)/IC50(MKK4)

compound | Selectivity JNK1
O=C(c1c(F)ccc(NS(=O)(=O)Cc2ccccc2)c1F)c1n[nH]c2ncc(-c3cnc(C4CC4)nc3)cc12 [Example 1] | ◯

* * *

Biological target: MKK4 (Homo sapiens, UniProt P45985)
# reported IC50; entries follow

compound_smiles | system_name | IC50
CCCS(=O)(=O)Nc1c(F)ccc(C(=O)c2n[nH]c3ncc(-c4ccncc4CC)cc23)c1F | MKK4 (Homo sapiens, UniProt P45985) | < 100 nM
CCCS(=O)(=O)Nc1c(F)ccc(C(=O)c2n[nH]c3ncc(-c4cnc(C)nc4)cc23)c1F | MKK4 (Homo sapiens, UniProt P45985) | < 100 nM
CCCS(=O)(=O)Nc1c(F)ccc(C(=O)c2n[nH]c3ncc(-c4cnc(-c5nnn[nH]5)nc4)cc23)c1F | MKK4 (Homo sapiens, UniProt P45985) | < 100 nM
CCCS(=O)(=O)Nc1c(F)ccc(C(=O)c2n[nH]c3ncc(-c4ccc(C(C)(C)C)cc4)cc23)c1F | MKK4 (Homo sapiens, UniProt P45985) | 100 to 1000 nM
CCCS(=O)(=O)Nc1c(F)ccc(C(=O)c2n[nH]c3ncc(-c4cncnc4C)cc23)c1F | MKK4 (Homo sapiens, UniProt P45985) | 100 to 1000 nM
O=C(c1c(F)ccc(NS(=O)(=O)Cc2ccccc2)c1F)c1n[nH]c2ncc(-c3cnc(C4CC4)nc3)cc12 | MKK4 (Homo sapiens, UniProt P45985) | 100 to 1000 nM
CCCS(=O)(=O)Nc1c(F)ccc(C(=O)c2n[nH]c3ncc(-c4cnc(Cl)nc4)cc23)c1F | MKK4 (Homo sapiens, UniProt P45985) | 100 to 1000 nM
CCCS(=O)(=O)Nc1c(F)cc(F)c(C(=O)c2n[nH]c3ncc(-c4cnc(C5CC5)nc4)cc23)c1F | MKK4 (Homo sapiens, UniProt P45985) | < 100 nM
CCCS(=O)(=O)Nc1c(F)ccc(C(=O)c2n[nH]c3ncc(-c4cnc(C(=O)O)nc4)cc23)c1F | MKK4 (Homo sapiens, UniProt P45985) | < 100 nM
CCOC(=O)c1ccc(-c2cnc3[nH]nc(C(=O)c4ccc(F)c(NS(C)(=O)=O)c4F)c3c2)cc1 | MKK4 (Homo sapiens, UniProt P45985) | 100 to 1000 nM
CCCS(=O)(=O)Nc1c(F)ccc(C(=O)c2n[nH]c3ncc(-c4cnc(O)nc4)cc23)c1F | MKK4 (Homo sapiens, UniProt P45985) | < 100 nM
CCCS(=O)(=O)Nc1c(F)ccc(C(=O)c2n[nH]c3ncc(-c4cnc(C)nc4C)cc23)c1F | MKK4 (Homo sapiens, UniProt P45985) | 100 to 1000 nM

FYI, the data here is from patent US12643895B2.
